tested on: U251 CNS; assay: NCI-60 one-dose screen, 48 h (100 = growth as untreated, 0 = no growth, -100 = all killed); conditions: 10 µM unless noted
This is part of a sample that, as a whole, favours compounds with a hit. Of some 83,000 tested, about 20% had one in any assay.
MEASURE: growth (%)
Return type: number; implicit unit %.

Below: 5 compounds and their reported growth.
COMPOUND | UNIT STRING | growth
O=C(CSc1nc2ccccc2c(=O)n1-c1ccc(Cl)cc1)N/N=C/c1ccc(Oc2ccc(Cl)cc2)cc1 | % | -20.5
CCOC(=O)c1cccc(NC2=C(Cl)C(=O)C(C)=C(C)C2=O)c1 | % | 90.9
CCc1cc2c(cc1Cl)nc1c(=O)[nH]c(=O)nc-1n2CCOCC(C)(C)C | % | 83.4
C1=CC(c2nn3c(-c4ccccc4)nnc3s2)=Cc2ccccc2O1 | % | 84.9
COc1ccc(/C(=N\N=C(N)N)c2ccc(Cl)cc2)cc1OC | % | 72.4

CCOC(=O)c1c(NC(=O)c2cccc(C(F)(F)F)c2)sc2c1CCC(=O)C2 has a reported growth of 3.77

// growth lookup, compound = N#C/C(=C\c1ccc(-c2ccc(Cl)c(Cl)c2)o1)C(=O)Nc1ncc(Cc2ccc(Cl)cc2)s1 , result: 3.74

Looking up Cc1csc(/N=C(N)/N=C(\N)c2cccc(C#N)c2)n1 , I see its growth listed as 64.7

Input CN1CCN(Cc2ccc(NC(=O)c3cncc(C#Cc4cnc5ccc(OC6CCOCC6)nn45)c3)cc2C(F)(F)F)CC1 . Output growth: -82.8

growth reported for this compound CNCCN(C)c1ccc(Nc2cc(NC3CC3)n3ncc(C#N)c3n2)cc1NC(C)=O : 5.12

---

System: IGROV1 ovarian
Assay: NCI-60 one-dose screen, 48 h
Details: 10 µM unless noted
Procedure: Growth inhibition of the IGROV1 human tumor cell line is measured as a screen for anti-cancer activity. Cells are grown in 96 well plates and exposed to the test compound for 48 hours. Compounds are tested at a single concentration, which is 10^-5 M for most compounds. The reported endpoint is percent growth (GI% or GIPRCNT), where numbers from 0 - 100% represent growth inhibition, and numbers from -100% - 0 represent cell death. For example, a value of 40 represents 60% growth inhibition. […]
The panel holds about 83,000 compounds, 20% with a hit somewhere; the sample as a whole holds those more often. Calls of active or inactive are those of the source. The calls were made as follows: active = growth percent below 10; inactive = the rest.
// classify into 1 (active), -1 (inactive)

Known results for compounds:
COMPOUND STRUCTURE STRING | LABEL
C=C1CCc2nc(SCC(=O)O)ccc2N1 | -1
COc1cc(C(=O)c2cc(C(C)=O)c3cccc(C)n23)cc(OC)c1OC | -1
CCOC(=O)c1ccccc1NC1=C(Cl)C(=O)c2nc(C)ccc2C1=O | -1
COc1ccccc1/C=C1\Oc2ccc(O)c(O)c2C1=O | -1
Cc1ccc(S(=O)(=O)NCCCNc2nccc(-c3[nH]c(-c4ccccc4)nc3-c3ccc(F)c(O)c3)n2)cc1 | -1
CN1CCN(Cc2ccc(NC(=O)c3cncc(C#Cc4cnc5ccc(OC6CCOCC6)nn45)c3)cc2C(F)(F)F)CC1 | 1
COc1ccc2[nH]cc(-c3nn4cc(-c5ccncc5)nc4s3)c2c1 | -1
O=C1[C@@H]2Cc3c([nH]c4ccccc34)[C@@H](c3ccc(Cl)cc3)N2C(=O)CN1C1CCN(Cc2c(F)cccc2F)CC1 | -1

Problem: Test call for this compound, please: O=S(=O)(Oc1ccc(-c2cn3ccsc3n2)cc1)c1cccc(C(F)(F)F)c1
Solution: -1

Problem: State the result this test recorded for O=C1C(SCc2ccccc2)=C(Cl)CN1c1ccc(Cl)cc1 .
Solution: -1
